src = patent US20070066628A1

- assayed target: PR (Homo sapiens)
- Construct: Frozen T47D cells were thawed in a 37° C. water bath and diluted to 280,000 cells/mL in culture medium; endogenous in cells
- method: T47D cell alkaline phosphatase assay
- applied conditions: T47D cells, agonist mode; read-out: Alk. Phos. EC50
- Method: (4) T47D Cell Alkaline Phosphatase Assay (a) Purpose: To identify progestins or antiprogestins by determining a compound's effect on alkaline phosphatase activity in T47D cells. […] Square root-transformed data were used for analysis of variance and nonlinear dose response curve fitting for both agonist and antagonist modes. […] EC50 or IC50 values were calculated from the retransformed values. […]
assay readout: pEC50
Quick note: pEC50 means taking -log10 of the concentration in moles per liter.

Briefly, pEC50 measured for Cn1c(C#N)ccc1-c1ccc2c(c1)C(C)(C)CC2O (stereo not shown) [Example 3] : 7.73
